- Test system: L1210 leukemia ip in BDF1 mice, survival T/C
- experiment-description: NCI In Vivo Anticancer Drug Screen. Data for tumor model L1210 Leukemia (intraperitoneal) in B6D2F1 (BDF1) mice
- condition-notes: endpoint: mean survival time; dose: 200.0 mg/kg/injection; schedule: Q04DX003 (ip); vehicle: saline with Tween-80; higher = longer survival
Inconclusive results and toxic doses are left out.
measure: T/C

Study these solved cases before continuing.
O=c1[nH]cnc2c1ncn2Cc1ccc([N+](=O)[O-])cc1 :: 96 % of control
Cc1cc(C)c(N2C(=O)CC(Sc3ccccc3N)C2=O)c(C)c1 (stereo not drawn) :: 109 % of control
CCCCCCCCCCCC(=O)NC(=S)Nc1ccc(C(=O)O)cc1 :: 98 % of control
CC1=NN(c2ccc(S(=O)(=O)O)cc2Cl)C(=O)C1 :: 98 % of control
[Ni+2].[O-]c1ccc(Cl)cc1C=NCc1ccccn1.[O-]c1ccc(Cl)cc1C=NCc1ccccn1 :: 93 % of control

Here is another compound to look at.
Please give measured T/C of the following entry: COc1ccc(C(=O)C(C)Br)c(OCc2ccccc2)c1OC (stereo not drawn)
90 % of control

* * *

T/C reference
- Test system: L1210 leukemia ip in BDF1 mice, survival T/C
- experiment-description: NCI In Vivo Anticancer Drug Screen. Data for tumor model L1210 Leukemia (intraperitoneal) in B6D2F1 (BDF1) mice
- condition-notes: endpoint: mean survival time; dose: 100.0 mg/kg/injection; schedule: Q01DX009 (ip); vehicle: Klucel (hydroxypropylcellulose) (HPC); higher = longer survival
- Experimental: The antitumor activity of compounds was measured in mice bearing transplantable tumors. Survival or tumor size were measured and the results are expressed as the measurement made in the treated group (T) divided by the measurement made in the vehicle treated control group (C). The tumor model used in this assay is L1210 Leukemia (intraperitoneal) in B6D2F1 (BDF1) mice
Toxic doses and inconclusive results are not listed.

Study these solved cases before continuing.
CC(=O)Nc1ccccc1I :: 104 % of control
C(=NCCc1ccccc1)c1ccccc1B1OB(c2ccccc2C=NCCc2ccccc2)OB(c2ccccc2C=NCCc2ccccc2)O1 :: 97 % of control
O=[N+]([O-])c1cc([As](=O)(O)O)ccc1Cl :: 97 % of control
O=CNC(CSC(=O)c1ccccc1)C(=O)O (stereo not drawn) :: 101 % of control
CCCCNC(=O)N(C1CCCCC1)C1CCCCC1 :: 103 % of control
O=c1cc(-c2ccccc2)nc(Nc2nc3ccc([N+](=O)[O-])cc3[nH]2)[nH]1 :: 95 % of control

Please give measured T/C of the following entry: "Cc1ccc([N+](=O)[O-])cc1NC(=O)Nc1ccc(S(N)(=O)=O)cc1"
97 % of control

Please give measured T/C of the following entry: "CCOC(=O)c1ccc(NC(=O)Oc2ccc(Cl)cc2C)cc1"
101 % of control

* * *

T/C reference
- System: L1210 leukemia ip in BDF1 mice, survival T/C
- experiment-description: NCI In Vivo Anticancer Drug Screen. Data for tumor model L1210 Leukemia (intraperitoneal) in B6D2F1 (BDF1) mice
- condition-notes: endpoint: mean survival time; dose: 400.0 mg/kg/injection; schedule: Q04DX003 (ip); vehicle: Klucel (hydroxypropylcellulose) (HPC); higher = longer survival
Inconclusive results and toxic doses are left out.

Study these solved cases before continuing.
Cc1cc(Cl)ccc1NC(=O)COc1ccc(Cl)cc1 :: 92 % of control
CN(C)c1ccc(C=O)c(Br)c1 :: 100 % of control
COC1OC(COS(C)(=O)=O)C(O)C(O)C1OS(C)(=O)=O (centres undefined) :: 102 % of control
CCOC(=O)c1nc[nH]c1C :: 98 % of control
O=C(Nc1ccc(C(=O)c2ccccc2)cc1)c1ccccc1 :: 98 % of control

Please give measured T/C of the following entry: "Nc1ccc(C(=O)Nc2ccc(Nc3ccncc3)cc2)cc1"
106 % of control

Please give measured T/C of the following entry: CCOC(=O)CN1C(C)C1C(C)C (centres undefined)
104 % of control

Please give measured T/C of the following entry: CCCCCCCCCCCCCCCC1=NN(c2ccccc2)C(=O)C1NC(=O)O (centres undefined)
98 % of control

Please give measured T/C of the following entry: O=C1Nc2ccc(Cl)cc2C(c2ccccc2)=NC1O (centres undefined)
111 % of control

Please give measured T/C of the following entry: "CC1SCC(=O)CS1"
97 % of control

* * *

- Test system: L1210 leukemia ip in BDF1 mice, survival T/C
- experiment-description: NCI In Vivo Anticancer Drug Screen. Data for tumor model L1210 Leukemia (intraperitoneal) in B6D2F1 (BDF1) mice
- condition-notes: endpoint: mean survival time; dose: 200.0 mg/kg/injection; schedule: Q04DX003 (ip); vehicle: saline with Tween-80; higher = longer survival
Toxic doses and inconclusive results are not listed.
measure: T/C

CCCc1cc(C)cc2nc(-c3ccccc3)oc12 :: 95 % of control
Cc1ccc(C(=O)O)cc1S(=O)(=O)F :: 91 % of control
CCCCOP(=O)(OCCCC)C(O)CCC (configuration not stated) :: 98 % of control

Here is another compound to look at.
Please give measured T/C of the following entry: CCCC(C)C(=O)Nc1cccc(OC(=O)NC(C)C)c1 (configuration not stated)
87 % of control

* * *

T/C reference
- Test system: L1210 leukemia ip in BDF1 mice, survival T/C
- experiment-description: NCI In Vivo Anticancer Drug Screen. Data for tumor model L1210 Leukemia (intraperitoneal) in B6D2F1 (BDF1) mice
- condition-notes: endpoint: mean survival time; dose: 400.0 mg/kg/injection; schedule: Q04DX003 (ip); vehicle: Klucel (hydroxypropylcellulose) (HPC); higher = longer survival
Toxic doses and inconclusive results are not listed.

CCOC(=O)/C(C)=C\C1C(C)=CC(=O)CC1(C)C (centres undefined) :: 100 % of control
CCOc1ccc(/C=C2\N=C(c3ccccc3)OC2=O)cc1 :: 98 % of control
Nc1c(Br)cc(Br)cc1Br :: 97 % of control

Please give measured T/C of the following entry: "CCN(CC)c1ccc(C=Nc2cccc(C(F)(F)F)c2)cc1"
97 % of control

Please give measured T/C of the following entry: "CC(C)(C)c1ccc(S(=O)(=O)c2ccc(C(C)(C)C)cc2)cc1"
91 % of control

Please give measured T/C of the following entry: "O=C(COc1ccc(Cl)cc1Cl)NCCO"
111 % of control

* * *

- Tested on: L1210 leukemia ip in BDF1 mice, survival T/C
- experiment-description: NCI In Vivo Anticancer Drug Screen. Data for tumor model L1210 Leukemia (intraperitoneal) in B6D2F1 (BDF1) mice
- condition-notes: endpoint: mean survival time; dose: 200.0 mg/kg/injection; schedule: Q04DX003 (ip); vehicle: saline with Tween-80; higher = longer survival
Toxic doses and inconclusive results are not listed.
T/C reference

Please give measured T/C of the following entry: "O=C1N=C(C(F)(F)F)N=C1c1[nH]c(C(F)(F)F)nc1O"
100 % of control

Please give measured T/C of the following entry: "NNC(=S)NC1CCCCC1"
96 % of control

Please give measured T/C of the following entry: "Cc1ccc(Nc2ccc(Nc3ccc(C)cc3)c3c2C(=O)c2ccccc2C3=O)cc1"
87 % of control

* * *

- Tested on: L1210 leukemia ip in BDF1 mice, survival T/C
- experiment-description: NCI In Vivo Anticancer Drug Screen. Data for tumor model L1210 Leukemia (intraperitoneal) in B6D2F1 (BDF1) mice
- condition-notes: endpoint: mean survival time; dose: 400.0 mg/kg/injection; schedule: Q04DX003 (ip); vehicle: Klucel (hydroxypropylcellulose) (HPC); higher = longer survival
Toxic doses and inconclusive results are not listed.
measure: T/C

Cc1cc(Cl)ccc1NS(=O)(=O)c1ccccc1 :: 97 % of control

Please give measured T/C of the following entry: CCCCCC(Br)C(Br)CC(Br)C(Br)CCCCCCCC(=O)O (stereo not drawn)
93 % of control

Please give measured T/C of the following entry: "O=C(Nc1ccccn1)Nc1ccccn1"
106 % of control

* * *

- System: L1210 leukemia ip in BDF1 mice, survival T/C
- experiment-description: NCI In Vivo Anticancer Drug Screen. Data for tumor model L1210 Leukemia (intraperitoneal) in B6D2F1 (BDF1) mice
- condition-notes: endpoint: mean survival time; dose: 200.0 mg/kg/injection; schedule: Q04DX003 (ip); vehicle: saline with Tween-80; higher = longer survival
Inconclusive results and toxic doses are left out.
T/C reference

CC(=O)c1cccc([N+](=O)[O-])c1 :: 106 % of control
c1ccc(-c2cccc([Si](c3ccccc3)(c3ccccc3)c3cccc(-c4ccccc4)c3)c2)cc1 :: 88 % of control
COc1ccc(NC(=O)Oc2ccc(Cl)c(C)c2)cc1 :: 90 % of control
FC(F)(F)c1cccc(B2OCCNCCO2)c1 :: 95 % of control
CCOP(=S)(OCC)SCc1ccccc1 :: 98 % of control

Please give measured T/C of the following entry: O=C(NC(Cc1ccccc1)C(=O)O)OCc1ccccc1 (stereo not given)
94 % of control

Please give measured T/C of the following entry: "O=S(=O)(Cc1ccccc1)Cc1ccccc1"
100 % of control

Please give measured T/C of the following entry: CCCCC(CC)COc1nc(OCC(CC)CCCC)nc(OCC(CC)CCCC)n1 (stereo not given)
92 % of control

Please give measured T/C of the following entry: "COP(=O)(OC)C(OC(=O)C(C)C)=C(C)C"
110 % of control

Please give measured T/C of the following entry: O=C1OC(=O)C2C3CC(C12)C1C2C=CC(C2)C31 (stereo not given)
95 % of control

Please give measured T/C of the following entry: "O=C(O)c1ccccc1SCc1cc(=O)[nH]c(=O)[nH]1"
102 % of control
